Molecular target: AXL receptor tyrosine kinase (AXL) (Homo sapiens, UniProt P30530)
Construct: purchased Eurofins DiscoverX (KINOMEscan service)
Sequence (P30530 26-894): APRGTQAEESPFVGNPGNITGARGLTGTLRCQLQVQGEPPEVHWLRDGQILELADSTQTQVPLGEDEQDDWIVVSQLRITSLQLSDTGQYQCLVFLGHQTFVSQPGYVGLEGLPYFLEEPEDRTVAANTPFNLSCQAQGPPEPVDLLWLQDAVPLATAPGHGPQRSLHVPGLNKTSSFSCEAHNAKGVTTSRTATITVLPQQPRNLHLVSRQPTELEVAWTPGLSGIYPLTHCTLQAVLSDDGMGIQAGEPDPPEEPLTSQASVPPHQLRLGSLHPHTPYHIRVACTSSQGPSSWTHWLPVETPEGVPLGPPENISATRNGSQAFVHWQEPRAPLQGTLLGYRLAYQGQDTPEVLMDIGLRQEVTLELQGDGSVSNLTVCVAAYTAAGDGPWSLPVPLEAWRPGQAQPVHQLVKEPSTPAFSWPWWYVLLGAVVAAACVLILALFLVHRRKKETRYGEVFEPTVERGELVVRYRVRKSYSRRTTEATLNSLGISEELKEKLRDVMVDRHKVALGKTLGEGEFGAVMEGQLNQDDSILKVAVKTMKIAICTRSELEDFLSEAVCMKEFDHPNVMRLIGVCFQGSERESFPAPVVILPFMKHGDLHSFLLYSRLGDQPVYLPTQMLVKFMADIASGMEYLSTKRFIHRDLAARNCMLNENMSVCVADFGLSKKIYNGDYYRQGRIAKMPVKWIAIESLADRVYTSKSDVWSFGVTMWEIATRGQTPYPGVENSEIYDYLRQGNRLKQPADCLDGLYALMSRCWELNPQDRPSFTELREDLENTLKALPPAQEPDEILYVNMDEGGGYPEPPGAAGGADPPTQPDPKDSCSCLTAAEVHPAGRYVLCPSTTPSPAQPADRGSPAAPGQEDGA
Test: KINOMEscan competition binding assay (Eurofins DiscoverX), AXL
Method: The affinity of several compounds hereof having a substituent on the imidazo[1,2-b]pyridazine moiety at position-6, wherein the substituent comprised one or more ring moieties was evaluated with respect to two TAM kinases: AXL and MERTK. […] The assay uses DNA-tagged kinase, an immobilized ligand, and the test compound. Quantitative polymerase chain reaction (PCR) of the DNT tag was then used to measure the ability of the tested compound to displace the immobilized ligand.
test-readout: Kd (nM)
Answer format: numeric, nM implied, no suffix.

In: Which Kd reading was recorded for the compound CN1CCN(Cc2ccc(NC(=O)c3cncc(C#Cc4cnc5ccc(N6C7CCC6COC7)nn45)c3)cc2C(F)(F)F)CC1 ?
Out: 1.2
